I'd appreciate it if you could supply Emax values for the items below.
molecular target: 5-hydroxytryptamine receptor 2C (Homo sapiens) (UniProt P28335); assay: Positive allosteric modulation of human 5-HT2CR expressed in CHO cells assessed as 5-HT-induced intracellular calcium release at 1 nM preincubated for 15 mins followed by 5-HT addition by calcium-4 dye based FLIPR assay (reference value: 100%); type: functional, cell-based
Sequence (P28335 whole entry): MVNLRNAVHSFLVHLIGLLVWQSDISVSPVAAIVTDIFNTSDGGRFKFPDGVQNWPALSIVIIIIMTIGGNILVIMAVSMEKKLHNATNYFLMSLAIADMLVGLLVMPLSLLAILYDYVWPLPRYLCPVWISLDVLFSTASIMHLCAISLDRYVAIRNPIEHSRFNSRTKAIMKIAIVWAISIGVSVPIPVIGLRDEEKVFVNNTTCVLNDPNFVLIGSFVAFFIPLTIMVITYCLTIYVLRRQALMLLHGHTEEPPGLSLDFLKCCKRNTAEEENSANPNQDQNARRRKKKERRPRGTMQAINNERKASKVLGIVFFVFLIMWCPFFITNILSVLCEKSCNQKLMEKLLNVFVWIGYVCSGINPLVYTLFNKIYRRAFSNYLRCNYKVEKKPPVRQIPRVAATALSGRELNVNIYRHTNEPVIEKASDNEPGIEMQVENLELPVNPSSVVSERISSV
One number for each entry, in %.

Known Emax results, listed for orientation:
| COMPOUND | Emax [%] |
| --- | --- |
| CCCCCCCCCCC[C@@H]1CCN[C@H](C(=O)N[C@@H](Cc2ccc(O)cc2)C(=O)OC)C1 | 104 |
| CCCCCCCCCCC[C@@H]1CCN[C@H](C(=O)NCC(O)CO)C1 (relative stereo) | 123 |
| CCCCCCCCCCC[C@@H]1CCN[C@H](C(=O)N[C@@H](CO)[C@H](C)O)C1 | 112 |
| CCCCCCCCCCC[C@@H]1CCN[C@H](C(=O)NC(CO)CO)C1 (relative stereo) | 108 |

// moving on: another record for Emax
Ask | Look up and state reported Emax for O=C(N[C@H](CO)[C@H](O)c1ccccc1)[C@H]1C[C@@H](CCC2CCCCC2)CCN1
Reply | 89.6

The measured values listed here are drawn from ChEMBL document CHEMBL4308830.
